Measured relative viability of individual entries
# Tested on: UMC-11
# assay_comment: relative viability (nuclei count vs DMSO), 5 days (fraction); higher = more cells survive
# run_conditions: first compound 8 µM
Please respond with just the number, no unit label.

**Q:** Suppose we examine the molecule CCCCCCCCCCCC1=C(O)C(=O)C=C(O)C1=O [Embelin] + O=C(CCCCCCC(=O)Nc1ccccc1)NO [Vorinostat] (partner 1 µM) ; what relative viability value has been reported?
**A:** 0.393

**Q:** Suppose we examine the molecule CCCCCCCCCCCC1=C(O)C(=O)C=C(O)C1=O [Embelin] + Cc1nc(NC(=O)N2CCC[C@H]2C(N)=O)sc1-c1ccnc(C(C)(C)C(F)(F)F)c1 [Alpelisib] (partner 2 µM) ; what relative viability value has been reported?
**A:** 1.2

**Q:** Suppose we examine the molecule CCCCCCCCCCCC1=C(O)C(=O)C=C(O)C1=O [Embelin] + O=C(c1cc(Cc2n[nH]c(=O)c3ccccc23)ccc1F)N1CCN(C(=O)C2CC2)CC1 [Olaparib] (partner 8 µM) ; what relative viability value has been reported?
**A:** 0.331

**Q:** Suppose we examine the molecule CCCCCCCCCCCC1=C(O)C(=O)C=C(O)C1=O [Embelin] + COc1cccc2cc(-c3nc([C@H]4CC[C@H](C(=O)O)CC4)n4ncnc(N)c34)[nH]c12 [OSI-027] (partner 0.5 µM) ; what relative viability value has been reported?
**A:** 0.51

**Q:** Suppose we examine the molecule CCCCCCCCCCCC1=C(O)C(=O)C=C(O)C1=O [Embelin] + CC1(C)CCC(c2ccc(Cl)cc2)=C(CN2CCN(c3ccc(C(=O)NS(=O)(=O)c4ccc(N[C@H](CCN5CCOCC5)CSc5ccccc5)c(S(=O)(=O)C(F)(F)F)c4)cc3)CC2)C1 [Navitoclax] (partner 0.5 µM) ; what relative viability value has been reported?
**A:** 0.289

**Q:** Suppose we examine the molecule CCCCCCCCCCCC1=C(O)C(=O)C=C(O)C1=O [Embelin] + CCNC(=O)c1noc(-c2cc(C(C)C)c(O)cc2O)c1-c1ccc(CN2CCOCC2)cc1 [Luminespib] (partner 0.01 µM) ; what relative viability value has been reported?
**A:** 1.22

====

# Tested on: NCI-H647
# assay_comment: relative viability (nuclei count vs DMSO), 5 days (fraction); higher = more cells survive
# run_conditions: first compound 8 µM
# strict inequality: relative viability < 1 yields Condition met, everything else yields Condition not met

Recorded results for 3 compounds are shown here.
compound: CCCCCCCCCCCC1=C(O)C(=O)C=C(O)C1=O [Embelin] + Cc1nc(Nc2ncc(C(=O)Nc3c(C)cccc3Cl)s2)cc(N2CCN(CCO)CC2)n1 [Dasatinib] (partner 0.075 µM)
subject_of_test: NCI-H647
cat: Condition met

compound: CCCCCCCCCCCC1=C(O)C(=O)C=C(O)C1=O [Embelin] + Cc1nc(NC(=O)N2CCC[C@H]2C(N)=O)sc1-c1ccnc(C(C)(C)C(F)(F)F)c1 [Alpelisib] (partner 2 µM)
subject_of_test: NCI-H647
cat: Condition not met

compound: CCCCCCCCCCCC1=C(O)C(=O)C=C(O)C1=O [Embelin] + O=C(c1cc(Cc2n[nH]c(=O)c3ccccc23)ccc1F)N1CCN(C(=O)C2CC2)CC1 [Olaparib] (partner 8 µM)
subject_of_test: NCI-H647
cat: Condition met

**Q:** is_below(relative viability, 1) for CCCCCCCCCCCC1=C(O)C(=O)C=C(O)C1=O [Embelin] + O=C(CCCCCCC(=O)Nc1ccccc1)NO [Vorinostat] (partner 1 µM) ?
**A:** Condition met

**Q:** is_below(relative viability, 1) for CCCCCCCCCCCC1=C(O)C(=O)C=C(O)C1=O [Embelin] + CC(=O)Nc1cccc(-n2c(=O)n(C3CC3)c(=O)c3c(Nc4ccc(I)cc4F)n(C)c(=O)c(C)c32)c1 [Trametinib] (partner 0.02 µM) ?
**A:** Condition met

**Q:** is_below(relative viability, 1) for CCCCCCCCCCCC1=C(O)C(=O)C=C(O)C1=O [Embelin] + C[C@]1(O)C[C@@H](c2nc(-c3ccc4ccc(-c5ccccc5)nc4c3)c3c(N)nccn32)C1 [Linsitinib] (partner 1 µM) ?
**A:** Condition not met

**Q:** is_below(relative viability, 1) for CCCCCCCCCCCC1=C(O)C(=O)C=C(O)C1=O [Embelin] + COc1cc2c(Oc3ccc(NC(=O)C4(C(=O)Nc5ccc(F)cc5)CC4)cc3F)ccnc2cc1OCCCN1CCOCC1 [Foretinib] (partner 0.25 µM) ?
**A:** Condition not met

====

# Test system: A549
# assay_comment: relative viability (nuclei count vs DMSO), 5 days (fraction); higher = more cells survive
# run_conditions: first compound 4 µM
reported_endpoint: relative viability
Please respond with just the number, no unit label.

compound: Clc1ccc(Nc2nnc(Cc3ccncc3)c3ccccc23)cc1 [Vatalanib] + O=C(c1cc(Cc2n[nH]c(=O)c3ccccc23)ccc1F)N1CCN(C(=O)C2CC2)CC1 [Olaparib] (partner 8 µM)
relative viability: 0.3

**Q:** Suppose we examine the compound C[C@@H]1CN(CC(=O)Nc2ccc3c(c2)Cc2cccc(-c4cc(=O)cc(N5CCOCC5)o4)c2S3)C[C@H](C)O1 + Nc1ncn([C@H]2C[C@H](O)[C@@H](CO)O2)c(=O)n1 [Decitabine] (partner 2 µM) ; what relative viability value has been reported?
**A:** 0.31

**Q:** Suppose we examine the compound Clc1ccc(Nc2nnc(Cc3ccncc3)c3ccccc23)cc1 [Vatalanib] + C[C@]1(O)C[C@@H](c2nc(-c3ccc4ccc(-c5ccccc5)nc4c3)c3c(N)nccn32)C1 [Linsitinib] (partner 1 µM) ; what relative viability value has been reported?
**A:** 0.592

====

Measured relative viability of individual entries
# System: LOU-NH91
# assay_comment: relative viability (nuclei count vs DMSO), 5 days (fraction); higher = more cells survive
# run_conditions: first compound 0.4 µM
Please respond with just the number, no unit label.

molecule: COc1cc(N2CCC(C(N)=O)CC2)ccc1Nc1nc(N)c(Cl)c(Nc2ccccc2S(=O)(=O)C(C)C)n1 [HG-5-88-01] + Nc1nc2[nH]cc(CCc3ccc(C(=O)N[C@@H](CCC(=O)O)C(=O)O)cc3)c2c(=O)[nH]1 [Pemetrexed] (partner 0.2 µM)
subject_of_test: LOU-NH91
relative viability: 0.376
//
molecule: Clc1ccc(Nc2nnc(Cc3ccncc3)c3ccccc23)cc1 [Vatalanib] + CS(=O)(=O)N1CCN(Cc2cc3nc(-c4cccc5[nH]ncc45)nc(N4CCOCC4)c3s2)CC1 [Pictilisib] (partner 1 µM)
subject_of_test: LOU-NH91
relative viability: 0.461

**Q:** State its relative viability on LOU-NH91: COc1cc(N2CCC(C(N)=O)CC2)ccc1Nc1nc(N)c(Cl)c(Nc2ccccc2S(=O)(=O)C(C)C)n1 [HG-5-88-01] + CC(=O)Nc1cccc(-n2c(=O)n(C3CC3)c(=O)c3c(Nc4ccc(I)cc4F)n(C)c(=O)c(C)c32)c1 [Trametinib] (partner 0.02 µM)
**A:** 0.602

====

# Tested on: NCI-H358
# assay_comment: relative viability (nuclei count vs DMSO), 5 days (fraction); higher = more cells survive
# run_conditions: first compound 0.01 µM
Measured relative viability of individual entries
Please respond with just the number, no unit label.

**Q:** State its relative viability on NCI-H358: CC(C)Oc1cc(Nc2nc(N[C@@H](C)c3ccc(F)cn3)ncc2Cl)n[nH]1 [AZ23] + N=C(N)NC(=N)NCCc1ccccc1 [Phenformin] (partner 250 µM)
**A:** 0.369

**Q:** State its relative viability on NCI-H358: CC(C)Oc1cc(Nc2nc(N[C@@H](C)c3ccc(F)cn3)ncc2Cl)n[nH]1 [AZ23] + COc1cc2c(Oc3ccc(NC(=O)C4(C(=O)Nc5ccc(F)cc5)CC4)cc3F)ccnc2cc1OCCCN1CCOCC1 [Foretinib] (partner 0.25 µM)
**A:** 0.786

====

# Tested on: NCI-H727
# assay_comment: relative viability (nuclei count vs DMSO), 5 days (fraction); higher = more cells survive
# run_conditions: first compound 0.4 µM
reported_endpoint: relative viability
Please respond with just the number, no unit label.

Use these answered entries as a reference point.
molecule: Clc1ccc(Nc2nnc(Cc3ccncc3)c3ccccc23)cc1 [Vatalanib] + C[C@@H](Oc1cc(-c2cnn(C3CCNCC3)c2)cnc1N)c1c(Cl)ccc(F)c1Cl [Crizotinib] (partner 1 µM)
relative viability: 0.992

molecule: COc1cc(N2CCC(C(N)=O)CC2)ccc1Nc1nc(N)c(Cl)c(Nc2ccccc2S(=O)(=O)C(C)C)n1 [HG-5-88-01] + COc1cccc2cc(-c3nc([C@H]4CC[C@H](C(=O)O)CC4)n4ncnc(N)c34)[nH]c12 [OSI-027] (partner 0.5 µM)
relative viability: 0.493

**Q:** State its relative viability on NCI-H727: C[C@@H]1CN(CC(=O)Nc2ccc3c(c2)Cc2cccc(-c4cc(=O)cc(N5CCOCC5)o4)c2S3)C[C@H](C)O1 + Cc1nc(NC(=O)N2CCC[C@H]2C(N)=O)sc1-c1ccnc(C(C)(C)C(F)(F)F)c1 [Alpelisib] (partner 2 µM)
**A:** 0.502

**Q:** State its relative viability on NCI-H727: C[C@@H]1CN(CC(=O)Nc2ccc3c(c2)Cc2cccc(-c4cc(=O)cc(N5CCOCC5)o4)c2S3)C[C@H](C)O1 + COc1cccc2cc(-c3nc([C@H]4CC[C@H](C(=O)O)CC4)n4ncnc(N)c34)[nH]c12 [OSI-027] (partner 0.5 µM)
**A:** 0.537
